All figures here come from patent US9227991B2.

- System: human hepatoma carcinoma cell SMMC-7721
- assay: MTT cytotoxicity test, SMMC-7721
- Assay type: cell-based
- details: SMMC-7721, MTT, 48 hours
- Source text: This test example adopts MTT method to conduct cytotoxicity test on the complexes of the present invention and the common clinical anti-cancer platinum drugs. Select cells in logarithmic phase, count them and inoculate them in a 96-well culture plate, at about 8000-10000 cells/well. […] Determine OD value of every well at 490 nm wavelength by microplate reader, calculate inhibition rate, draw a concentration-inhibition rate curve and calculate value IC50.
readoutType: IC50 (µM)
Only the number, expressed in µM, is required.

Example entries and their recorded answers appear below.
recordSmiles | readoutType | testValue
N.N.O=C([O-])C1(C(=O)[O-])CCC1.[Pt+2] | IC50 | 52.7
O=C1[O][Pt]2([NH][C@@H]3CCCC[C@H]3[NH]2)[O]C1=O | IC50 | 32.3

Next:
The reported IC50 of the compound N[C@@H]1CCCC[C@H]1N.O=C1CC2(C1)C(=O)[O][Pt][O]C2=O was 216

###

- System: human gastric adenocarcinoma cell BGC823
- assay: MTT cytotoxicity test, BGC823
- Format: cell-based
- details: 48 hours
- Excerpt: This test example adopts MTT method to conduct cytotoxicity test on the complexes of the present invention and the common clinical anti-cancer platinum drugs. Select cells in logarithmic phase, count them and inoculate them in a 96-well culture plate, at about 8000-10000 cells/well. […] Determine OD value of every well at 490 nm wavelength by microplate reader, calculate inhibition rate, draw a concentration-inhibition rate curve and calculate value IC50.
Collected pIC50 values appear next to each entry.
On this scale, pIC50 is minus log10 of a concentration expressed in M (mol/L).

Solved cases (3 shown):
compound | testValue
N.N.O=C([O-])C1(C(=O)[O-])CCC1.[Pt+2] | 4.36
O=C1[O][Pt]2([NH][C@@H]3CCCC[C@H]3[NH]2)[O]C1=O | 5.10
N.N.[Cl][Pt][Cl] [Cis-platinum, cis-platinum] | 5.26

Now turn to the next compound.
Recorded pIC50 (compound N[C@@H]1CCCC[C@H]1N.O=C1CC2(C1)C(=O)[O][Pt][O]C2=O ): 5.05

###

- assay: Solubility in water
- Format: physicochemical
readoutType: solubility

Entry under test: [NH2][Pt]1([NH2])[O]C(=O)C2(CC(=O)C2)C(=O)[O]1 . Its solubility was 16 mg/mL

###

- System: human hepatoma carcinoma cell HepG-2
- assay: MTT cytotoxicity test, HepG2
- Type: cell-based
- details: 48 hours
readoutType: pIC50
As a rule, pIC50 stands for the negative log10 of the concentration, concentration in M.

Some solved cases for reference:
compound | readoutType | testValue
N[C@@H]1CCCC[C@H]1N.O=C1CC2(C1)C(=O)[O][Pt][O]C2=O [GSH-6] | pIC50 | 4.50
N.N.O=C([O-])C1(C(=O)[O-])CCC1.[Pt+2] [Carboplatin, carboplatin] | pIC50 | 4.00
O=C1[O][Pt]2([NH][C@@H]3CCCC[C@H]3[NH]2)[O]C1=O [Oxaliplatin, oxaliplatin] | pIC50 | 4.57

Then this compound:
Per the record, N.N.[Cl][Pt][Cl] [Cis-platinum, cis-platinum] has pIC50 of 5.68
